measured-on: Lethal factor (Bacillus anthracis) (UniProt P15917)
Sequence (P15917 whole entry, looked up): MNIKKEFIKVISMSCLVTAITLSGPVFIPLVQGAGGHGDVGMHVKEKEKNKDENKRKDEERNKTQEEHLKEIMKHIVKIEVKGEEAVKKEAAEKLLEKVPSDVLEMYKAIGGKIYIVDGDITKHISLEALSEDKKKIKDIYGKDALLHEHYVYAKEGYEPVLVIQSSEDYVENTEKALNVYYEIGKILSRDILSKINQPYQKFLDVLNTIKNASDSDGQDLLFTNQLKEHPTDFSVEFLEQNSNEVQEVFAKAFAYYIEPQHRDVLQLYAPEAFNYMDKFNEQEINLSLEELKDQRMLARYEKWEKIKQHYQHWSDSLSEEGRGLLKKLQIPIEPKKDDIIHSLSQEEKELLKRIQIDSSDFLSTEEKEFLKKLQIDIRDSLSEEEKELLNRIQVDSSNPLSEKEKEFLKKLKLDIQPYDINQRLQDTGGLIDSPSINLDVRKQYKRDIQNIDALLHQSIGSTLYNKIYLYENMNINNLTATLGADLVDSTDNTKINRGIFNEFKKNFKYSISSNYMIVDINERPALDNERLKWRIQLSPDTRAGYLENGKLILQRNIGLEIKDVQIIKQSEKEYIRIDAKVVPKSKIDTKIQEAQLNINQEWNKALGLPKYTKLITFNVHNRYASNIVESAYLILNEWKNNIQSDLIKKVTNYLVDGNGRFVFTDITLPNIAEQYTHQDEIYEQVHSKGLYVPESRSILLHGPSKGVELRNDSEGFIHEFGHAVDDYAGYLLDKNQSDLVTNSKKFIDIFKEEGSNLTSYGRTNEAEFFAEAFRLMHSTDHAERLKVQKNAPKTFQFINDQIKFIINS
assay-remarks: Lethal factor protease inhibitors, Bacillus anthracis, multiplex microsphere cleavage assay, validation set (AID 588461)
condition-notes: flow cytometry, at 10 µM, stronger effect = higher value
measured-metric: inhibition (%)
Report the figure in % without appending any unit label.

Previously resolved entries follow.
molecule: CCOC(=O)c1cc2cc3ccccc3cc2[nH]1
inhibition (%): 5.8

molecule: Cc1nc2ccccn2c(=O)c1CCN1CCC(C(=O)c2ccc(F)cc2)CC1
inhibition (%): -0.4

molecule: CC(=O)N1CC2(C)CN(C(C)=O)CC(C)(C1)C2
inhibition (%): 7.3

molecule: Cc1cc(/C=N/O)c(C)n1-c1ccc(Br)cc1
inhibition (%): 0.9

The reported value for Cc1cccc(-c2ncc(CN3CCN(CC(C)C)C(CCO)C3)cn2)c1 (stereo not drawn) in terms of inhibition is 0.4

The reported value for CC(=O)NC1C(OCc2ccccc2)OC(COC(C)=O)C(OC(C)=O)C1OC(C)=O (stereo not drawn) in terms of inhibition is -2.2

The reported value for "CCC1(c2ccccc2)C(=O)N(COC)C(=O)N(COC)C1=O" in terms of inhibition is 0.4

The reported value for CC1CC(OC(=O)C(O)c2ccccc2)CC(C)(C)N1C (stereo not drawn) in terms of inhibition is -6.1

---

measured-on: Botulinum neurotoxin type A (Clostridium botulinum) (UniProt P0DPI0)
Sequence (P0DPI0 whole entry, looked up): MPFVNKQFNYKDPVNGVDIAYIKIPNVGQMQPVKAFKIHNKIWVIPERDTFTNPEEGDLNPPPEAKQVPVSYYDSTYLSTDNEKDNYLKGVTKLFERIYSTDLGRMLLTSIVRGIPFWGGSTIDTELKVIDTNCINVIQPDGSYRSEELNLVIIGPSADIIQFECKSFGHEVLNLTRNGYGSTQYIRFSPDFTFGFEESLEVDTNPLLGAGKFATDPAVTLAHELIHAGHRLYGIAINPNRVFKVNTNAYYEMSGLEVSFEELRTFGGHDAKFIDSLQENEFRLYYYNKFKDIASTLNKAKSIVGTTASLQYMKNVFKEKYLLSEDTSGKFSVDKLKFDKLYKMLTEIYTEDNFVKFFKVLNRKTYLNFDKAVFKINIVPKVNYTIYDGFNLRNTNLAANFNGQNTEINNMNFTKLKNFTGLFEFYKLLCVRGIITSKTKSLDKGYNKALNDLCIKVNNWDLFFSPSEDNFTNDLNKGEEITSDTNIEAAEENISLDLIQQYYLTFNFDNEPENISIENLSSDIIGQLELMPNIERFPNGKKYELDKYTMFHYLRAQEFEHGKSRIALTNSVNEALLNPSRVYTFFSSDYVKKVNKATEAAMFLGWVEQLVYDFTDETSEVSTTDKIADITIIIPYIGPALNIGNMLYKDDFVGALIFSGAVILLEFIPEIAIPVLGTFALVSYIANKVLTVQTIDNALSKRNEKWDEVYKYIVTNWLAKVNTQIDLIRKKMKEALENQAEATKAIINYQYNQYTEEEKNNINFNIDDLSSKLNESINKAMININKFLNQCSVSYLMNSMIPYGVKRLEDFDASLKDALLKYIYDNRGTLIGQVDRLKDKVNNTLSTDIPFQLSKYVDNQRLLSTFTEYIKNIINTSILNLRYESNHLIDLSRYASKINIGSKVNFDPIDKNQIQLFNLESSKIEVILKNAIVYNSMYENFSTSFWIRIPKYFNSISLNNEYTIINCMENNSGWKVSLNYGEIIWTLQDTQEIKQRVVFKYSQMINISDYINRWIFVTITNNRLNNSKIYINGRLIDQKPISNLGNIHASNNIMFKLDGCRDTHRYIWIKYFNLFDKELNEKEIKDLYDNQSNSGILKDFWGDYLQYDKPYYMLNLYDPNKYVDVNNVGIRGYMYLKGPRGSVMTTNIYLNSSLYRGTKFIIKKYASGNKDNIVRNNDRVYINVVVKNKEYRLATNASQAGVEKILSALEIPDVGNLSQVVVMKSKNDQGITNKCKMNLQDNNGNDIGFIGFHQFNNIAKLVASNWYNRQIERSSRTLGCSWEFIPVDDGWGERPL
assay-remarks: BoNT/A light chain protease inhibitors, biochemical, multiplex microsphere flow cytometry, validation set (AID 588460)
condition-notes: at 10 µM, stronger effect = higher value
This section presents molecules with their documented inhibition values.
Report the figure in % without appending any unit label.

Previously resolved entries follow.
molecule: COc1ccc2c(C=O)cn(C)c2c1
measured-on: Botulinum neurotoxin type A (Clostridium botulinum) (UniProt P0DPI0)
observed-measurement: -0.9
--
molecule: CC(=O)N(CCC1(c2ccc(C)cc2)CCOC(C(C)C)C1)Cc1ccco1 (stereo not drawn)
measured-on: Botulinum neurotoxin type A (Clostridium botulinum) (UniProt P0DPI0)
observed-measurement: 0
--
molecule: COC(=O)C1=C(C)N(Cc2ccco2)C(=O)/C1=C\c1ccc([N+](=O)[O-])cc1
measured-on: Botulinum neurotoxin type A (Clostridium botulinum) (UniProt P0DPI0)
observed-measurement: -0.6

The reported value for "O=C(Cc1ccccc1)NCC(=O)OCC(=O)c1ccccc1Cl" in terms of inhibition is -2.5

The reported value for "O=C(O)c1ccc(-c2ccc(O)c(F)c2)cc1" in terms of inhibition is -1.7

The reported value for "O=C1CN=C(c2ccccc2F)c2cc(Cl)ccc2N1" in terms of inhibition is 0.4

The reported value for "O=C(O)CCn1c(=S)n(CCC(=O)O)c2ccccc21" in terms of inhibition is 0.3

The reported value for "Cc1ccsc1/C=N\NC(=O)c1ccc2c(c1)OCO2" in terms of inhibition is 0.4

The reported value for COc1ccccc1C(O)c1nccn1C (stereo not drawn) in terms of inhibition is -0.7

---

measured-on: Botulinum neurotoxin type A (Clostridium botulinum)
assay-remarks: BoNT/A light chain protease inhibitors, biochemical, multiplex microsphere flow cytometry, validation set (AID 588460)
condition-notes: at 10 µM, stronger effect = higher value
This section presents molecules with their documented inhibition values.
Report the figure in % without appending any unit label.

Previously resolved entries follow.
molecule: COC(=O)C1=C(C)NC(C)=C([N+](=O)[O-])C1c1ccccc1C(F)(F)F (configuration not stated)
inhibition / %: -1
--
molecule: O=C(N1CCCC1)C12CC3CC(C1)CC(C(=O)N1CCCC1)(C3)C2
inhibition / %: -2.5
--
molecule: CCn1c2ccccc2c2cc(CC(N)=O)ccc21
inhibition / %: -0.6

The reported value for "O=C(O)CP(=O)(O)O" in terms of inhibition is 0.3

The reported value for CC(C)C1Cc2[nH]c(=O)c(C(=O)O)cc2CO1 (configuration not stated) in terms of inhibition is -0.9

The reported value for "CCNC(=S)N1CCN(CCN2C(=O)c3cccc4cccc(c34)C2=O)CC1" in terms of inhibition is 3.7

---

System: Botulinum neurotoxin type F light chain protease (Clostridium botulinum)
assay-remarks: Botulinum neurotoxin type F light chain protease inhibition, multiplex microsphere flow cytometry, validation set (AID 588459)
condition-notes: multiplex microsphere protease substrate cleavage assay, at 10 µM, stronger effect = higher value
measured-metric: inhibition (%)
Report the figure in % without appending any unit label.

Previously resolved entries follow.
compound: CC(C)(C)OC(=O)NCCC(=O)Oc1ccc2ccc(=O)oc2c1
measured-metric: inhibition
observed-measurement: -1.5

compound: COc1cc(/C=C/C(=O)CC(=O)/C=C/c2ccc(O)c(OC)c2)ccc1O
measured-metric: inhibition
observed-measurement: 12.2

compound: COc1ccc(CN2CCCC(C(=O)c3ccc(Cl)cc3)C2)cc1Cn1cccn1 (stereo not drawn)
measured-metric: inhibition
observed-measurement: 1.9

compound: CN(C)CCN(Cc1ccccc1)c1ccccn1
measured-metric: inhibition
observed-measurement: 2.2

compound: C[C@H]1O[C@H]1P(=O)(O)O
measured-metric: inhibition
observed-measurement: -0.1

Botulinum neurotoxin type F light chain protease (Clostridium botulinum) assay, compound "CCOC(=O)/C=C1\NC(C)(C)Cc2cc(OC)c(OC)cc21" , recorded inhibition = 0.2

Botulinum neurotoxin type F light chain protease (Clostridium botulinum) assay, compound "N/C(=N\OC(=O)c1ccc(Br)o1)c1ccccn1" , recorded inhibition = -0.2

Botulinum neurotoxin type F light chain protease (Clostridium botulinum) assay, compound "CC(C)(C)N1NC2(CCCCC2)NC1=S" , recorded inhibition = 4.9

Botulinum neurotoxin type F light chain protease (Clostridium botulinum) assay, compound "Cc1ccc2c(c1)c(C)cc(=O)n2CCC(=O)O" , recorded inhibition = 0.8

Botulinum neurotoxin type F light chain protease (Clostridium botulinum) assay, compound COc1ccc2c(c1OC)C(=O)NC(C)=C(C(=O)OC(C)(C)C)C2O (stereo not drawn) , recorded inhibition = 4.3

Botulinum neurotoxin type F light chain protease (Clostridium botulinum) assay, compound "C=C(C)COc1ccc(-c2n[nH]c(C)c2-c2ccc(OC)cc2)c(O)c1" , recorded inhibition = -1.3

Botulinum neurotoxin type F light chain protease (Clostridium botulinum) assay, compound CC12CCC(C(=O)NNc3ccccc3)(C(=O)C1=O)C2(C)C (stereo not drawn) , recorded inhibition = 1.1

Botulinum neurotoxin type F light chain protease (Clostridium botulinum) assay, compound "CC(C)NC[C@@H](O)c1ccc(O)c(O)c1" , recorded inhibition = -3.7

---

This section presents compounds with their documented inhibition values.
measured-on: Botulinum neurotoxin type A (Clostridium botulinum) (UniProt P0DPI0)
assay-remarks: BoNT/A light chain protease inhibitors, biochemical, multiplex microsphere flow cytometry, validation set (AID 588460)
condition-notes: at 10 µM, stronger effect = higher value
Report the figure in % without appending any unit label.

Previously resolved entries follow.
compound: Cc1ccnc(NS(=O)(=O)c2ccc(N)cc2)n1
inhibition (%): -0.3
//
compound: CCC(=O)c1ccc(O)cc1
inhibition (%): -0.4
//
compound: CC(=O)C1=C(O)C(=O)N(Cc2cccnc2)C1c1ccc(C(C)C)cc1 (centres undefined)
inhibition (%): 4.3

The reported value for "COc1cc(CNCc2ccc(OC)c(OC)c2OC)cc(OC)c1" in terms of inhibition is -0.7

The reported value for "CCOc1ccc(C(=O)Nc2ccc(N3CCN(C(C)=O)CC3)cc2)cc1[N+](=O)[O-]" in terms of inhibition is 0

The reported value for COc1ccc(C2OC(=O)Cc3cc(OC)c(OC)cc32)cc1 (centres undefined) in terms of inhibition is 0.8

The reported value for "O=C1C(=O)c2ccccc2C(O)=C1c1ccccc1F" in terms of inhibition is 0.5

The reported value for "Cn1c([N+](=O)[O-])cnc1COC(N)=O" in terms of inhibition is -0.6

The reported value for CC12CN3CC(C)(CN(C1)C3c1cccnc1)C2=O (centres undefined) in terms of inhibition is 0.6

The reported value for "C[C@H](NC(=O)NCCc1ccccc1)C(=O)O" in terms of inhibition is -0.2

---

This section presents molecules with their documented inhibition values.
measured-on: Botulinum neurotoxin type A (Clostridium botulinum) (UniProt P0DPI0)
assay-remarks: BoNT/A light chain protease inhibitors, biochemical, multiplex microsphere flow cytometry, validation set (AID 588460)
condition-notes: at 10 µM, stronger effect = higher value
Report the figure in % without appending any unit label.

molecule: CC(C)(C)C(=O)NCCCNc1ccc([N+](=O)[O-])cc1
measured-metric: inhibition
measurement-unit: %
observed-measurement: -0.3
--
molecule: CCC(C)NCCOc1ccc(C(C)(C)c2ccccc2)cc1 (stereo unspecified)
measured-metric: inhibition
measurement-unit: %
observed-measurement: 0.7
--
molecule: Cc1ccc(C2CC(=O)C(C=NCCN3CCN(C(=S)Nc4ccccc4)CC3)=C(O)C2)cc1 (stereo unspecified)
measured-metric: inhibition
measurement-unit: %
observed-measurement: 0.1
--
molecule: Fc1cccc(Cc2noc(CN3CCN(c4cnccn4)CC3)n2)c1
measured-metric: inhibition
measurement-unit: %
observed-measurement: -1.3
--
molecule: Cc1nc(C)c(C)nc1C
measured-metric: inhibition
measurement-unit: %
observed-measurement: -0.9
--
molecule: COc1ccc(/C=C\c2nc(=O)c3ccccc3o2)cc1
measured-metric: inhibition
measurement-unit: %
observed-measurement: -0.8
--
molecule: CO[C@@H]1O[C@@H]2COC(c3ccccc3)O[C@@H]2[C@@H](OC)[C@@H]1O (stereo partly specified)
measured-metric: inhibition
measurement-unit: %
observed-measurement: -0.6
--
molecule: NC12CC3CC(CC(C3)C1)C2
measured-metric: inhibition
measurement-unit: %
observed-measurement: -0.6
--
molecule: N#C/C(=C/c1ccccc1)C(=O)NCc1ccccc1
measured-metric: inhibition
measurement-unit: %
observed-measurement: 0.1
--
molecule: Cc1nc2ccccc2c(=O)n1N
measured-metric: inhibition
measurement-unit: %
observed-measurement: 0.7

The reported value for "CC1(C)CC(=O)c2cnc(NC(=O)C3CCCC3)nc2C1" in terms of inhibition is -1.3

The reported value for "COc1ccc(C(C)=O)c2c1OCCO2" in terms of inhibition is -2.8

The reported value for "CS(=O)(=O)Oc1ccc2c(c1)O/C(=C\C=C\c1ccccc1)C2=O" in terms of inhibition is 28.3

The reported value for "COc1ccc(/C=C\c2cc(OC)c(OC)cc2CC[N+](C)(C)C)cc1OC" in terms of inhibition is -1.4

The reported value for "CC(C)C(=O)Nc1ccc2c3c(cccc13)CC2" in terms of inhibition is 0.5

The reported value for "COc1ccc(-c2cc(=O)oc3c(C)c(O)c(CN(C)C)cc23)cc1" in terms of inhibition is 0.6
